Where these numbers come from: the supplement of paper PMC4466140

Quick list: SPOT peptide array binding signal intensity per entry.
- Tested System: AgNbp2
- Test Details: SPOT peptide array binding signal intensity (averaged, normalized) (arbitrary units (background-subtracted, floor 0; scale differs between SH3 domains)); higher = stronger binding of the SH3 domain to the peptide
Readout Label: SPOT peptide array binding signal intensity

1) ALFRLSFFFPLDPAY; 796
2) RFKRHRLEFPFNESE; 37
3) SKIRPTPRKPSRMAT; 1050
4) LKQRFFLMFPKSIIW; 146
5) HPRFVSPRIPSRIVK; 390
6) RAPPPVPKKPSSRIA; 3960
7) VTHRLRISIPGITGR; 123
8) FYHRPAPKPPVTKKV; 1040
9) DKSRPPRPPPKPLHL; 62.5
